- System: RIVA
- assay-details: growth inhibition by drug plus 177Lu-lilotomab satetraxetan (1 - RLU/untreated control) (fraction); higher = stronger inhibition
- particulars: 10 nM; time (day): 3; 177Lu-lilotomab satetraxetan 0.5 ug/ml
Range-based classes on measured growth inhibition by drug plus 177Lu-lilotomab satetraxetan: class 0: < 0.4; class 1: ≥ 0.4 and < 0.6; class 2: ≥ 0.6

Example entries and their recorded answers appear below.
- molecule: "O=C(CCCCCCC(=O)Nc1cccnc1)NO [Pyroxamide]"
  discrete-label: "class 0"
- molecule: "CS(=O)(=O)N1CCN(Cc2cc3nc(-c4cccc5[nH]ncc45)nc(N4CCOCC4)c3s2)CC1"
  discrete-label: "class 0"
- molecule: "O=C(O)Cc1cccc(OCCCN(Cc2cccc(C(F)(F)F)c2Cl)CC(c2ccccc2)c2ccccc2)c1"
  discrete-label: "class 2"
- molecule: "CC(C)Oc1cc(Nc2nc(N[C@@H](C)c3ccc(F)cn3)ncc2Cl)n[nH]1"
  discrete-label: "class 2"
- molecule: "Cn1cnc2c(F)c(Nc3ccc(Br)cc3Cl)c(C(=O)NOCCO)cc21 [AZD6244 (Selumetinib)]"
  discrete-label: "class 1"

## Task Class label required: "C=CC(=O)N1CCC[C@@H](n2nc(-c3ccc(Oc4ccccc4)cc3)c3c(N)ncnc32)C1"
## Result class 2

## Task // query: "CCN1CCN(Cc2ccc(-c3cc4c(N[C@H](C)c5ccccc5)ncnc4[nH]3)cc2)CC1"
## Result class 1
